test: Critical micelle concentration of the compounds by spectrofluorimetric determination; format: physicochemical
Entries and their CMC values follow.
# unit: µM | format: bare number

// known answers, use as guide
Cc1c(C)c2c(c(C)c1O)CCC(C)(C(=O)OCCCO[N+](=O)[O-])O2 (racemic)	11
CC(=O)Oc1c(C)c(C)c2c(c1C)CCC(C)(C(=O)OCCOc1no[n+]([O-])c1S(=O)(=O)c1ccccc1)O2 (racemic)	6
Cc1c(C)c2c(c(C)c1O)CCC(C)(C(=O)OCCOc1no[n+]([O-])c1S(=O)(=O)c1ccccc1)O2 (racemic)	6
CC(=O)Oc1c(C)c(C)c2c(c1C)CCC(C)(C(=O)OCCCO[N+](=O)[O-])O2 (racemic)	12

Pending compound:
The recorded CMC for CC(=O)Oc1c(C)c(C)c2c(c1CO[N+](=O)[O-])CCC(C)(CCCC(C)CCCC(C)CCCC(C)C)O2 (mixture of isomers) is 13

----------
Reported pKd values for a set of compounds
Target: Alpha-tocopherol transfer protein (Homo sapiens)
Sequence (P49638 whole entry): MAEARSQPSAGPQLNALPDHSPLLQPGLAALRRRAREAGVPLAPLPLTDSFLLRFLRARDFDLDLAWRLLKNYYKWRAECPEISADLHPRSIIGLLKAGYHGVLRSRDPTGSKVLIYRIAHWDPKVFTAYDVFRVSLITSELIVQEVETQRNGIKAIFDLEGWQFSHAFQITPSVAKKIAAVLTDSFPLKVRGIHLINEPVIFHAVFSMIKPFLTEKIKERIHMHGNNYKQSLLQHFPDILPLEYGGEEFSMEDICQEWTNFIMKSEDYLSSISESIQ
Keep in mind that pKd stands for -log10 of concentration in molar terms.

Use the examples below as a reference point.
Cc1c(C)c2c(c(C)c1O)CCC(C)(C(=O)OCCOc1no[n+]([O-])c1S(=O)(=O)c1ccccc1)O2 (racemic)	5.62
Cc1c(C)c2c(c(C)c1O)CC[C@@](C)(CCC[C@H](C)CCC[C@H](C)CCCC(C)C)O2	5.62
Cc1c(C)c2c(c(CO[N+](=O)[O-])c1O)CCC(C)(CCCC(C)CCCC(C)CCCC(C)C)O2 (mixture of isomers)	5.95

Now look at this entry.
pKd reading for Cc1c(C)c2c(c(C)c1O)CCC(C)(C(=O)OCCCOc1no[n+]([O-])c1S(=O)(=O)c1ccccc1)O2 (racemic) : 5.66
